Hi there, I'd appreciate the recorded %Inh for every entry that follows.
# Test system: DCAMKL3
# Construct: gene DCLK3
# CONDITION_SUMMARY: concentration: 1 μM, replicates: in singlicate; n = 1;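 also: KINOMEscan kinase panel screen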
Expressed in %, but write only the number.

Checklist item: %Inh tested on DCAMKL3, entry `Cn1ccc2ncnc(Oc3ccc(Nc4nc5ccccc5[nH]4)cc3)c21` , value? 0

Also check Cl.c1ccc(-c2n[nH]cc2-c2ccnc(-c3ccc(CN4CCOCC4)cc3)c2)nc1 [GW776245] 12

Also check Cn1cncc1-c1ccc2ncnc(Nc3ccc(OCc4ccccc4)cc3)c2c1 [GW320571] 31

---

# System: PAK2
# CONDITION_SUMMARY: concentration: 1 μM, replicates: in singlicate; n = 1
Hi there, I'd appreciate the recorded %Inh for every entry that follows.
Expressed in %, but write only the number.

Checklist item: %Inh tested on PAK2, entry `CS(=O)(=O)c1ccc(-c2nc3n(c2-c2ccncc2)CCC3)cc1` , value? 26

Also check `Cn1ccc2ncnc(Oc3cccc(C(=O)Nc4ccccc4)c3)c21` 0

Also check `Cc1cc(N2Cc3ccccc3C2)nc(Nc2ccc(S(=O)(=O)N3CCOCC3)cc2)n1.Cl` 3

Also check `Nc1ncnc2[nH]c(-c3ccccc3)nc12` 48

Also check `CS(=O)(=O)c1ccc(-c2c(-c3ncn[nH]3)sc(N3CCOCC3)c2C#N)cc1` 10

Also check `Cc1cc(-c2ccc3c(c2)CC[C@@H](N[C@@H](C)c2ccccc2)C3)cnc1N.Cl` 16
